# Target Entity: Ecm22 (UniProt Q05958)
# Sequence: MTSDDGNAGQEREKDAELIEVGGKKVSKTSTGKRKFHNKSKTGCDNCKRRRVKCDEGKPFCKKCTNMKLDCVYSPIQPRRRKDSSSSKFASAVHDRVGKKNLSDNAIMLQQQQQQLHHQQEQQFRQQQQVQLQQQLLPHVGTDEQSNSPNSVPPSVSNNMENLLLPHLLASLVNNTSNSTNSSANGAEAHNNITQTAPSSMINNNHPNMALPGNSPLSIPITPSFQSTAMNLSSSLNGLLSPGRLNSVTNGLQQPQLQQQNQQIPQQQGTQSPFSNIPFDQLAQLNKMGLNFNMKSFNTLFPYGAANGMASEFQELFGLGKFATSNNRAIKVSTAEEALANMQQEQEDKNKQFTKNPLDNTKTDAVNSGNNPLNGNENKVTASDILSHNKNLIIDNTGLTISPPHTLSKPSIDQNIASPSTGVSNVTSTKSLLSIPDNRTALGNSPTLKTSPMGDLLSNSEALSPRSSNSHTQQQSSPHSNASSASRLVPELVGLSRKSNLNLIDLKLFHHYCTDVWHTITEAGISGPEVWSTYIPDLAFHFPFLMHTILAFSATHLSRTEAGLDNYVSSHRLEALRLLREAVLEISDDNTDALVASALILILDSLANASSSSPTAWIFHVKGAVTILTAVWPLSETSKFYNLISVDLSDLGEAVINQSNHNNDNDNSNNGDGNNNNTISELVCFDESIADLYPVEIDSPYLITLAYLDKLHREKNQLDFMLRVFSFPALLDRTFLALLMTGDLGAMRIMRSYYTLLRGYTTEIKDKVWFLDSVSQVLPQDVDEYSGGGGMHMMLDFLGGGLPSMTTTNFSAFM
# Experiment Notes: PBM E-score (8-mer binding enrichment) (E-score (-0.5 to 0.5)); higher = stronger / more preferred TF binding
# Details: protein concentration: 200 nM; construct: GST-full length
Whole data set: some 33,000 sequences, median “E-score (-0.5 to 0.5)” near -0.041, cut for the highest 2% near 0.37. For the sample, the highest values were picked, then their nearest neighbours and some sequences at random.
Class key for PBM E-score values: low end (below -0.02), middle (-0.02 to below 0.2), high end (0.2 or more)

The examples below pair each entry with its known result.
   item_sequence  class_name
0       AATAACAA     low end
1       CTCTAGAA     low end
2       GAGTCTAA     low end
3       GACCTTCA     low end
4       CGGGTCGA      middle

Now examine the next entry.
query: Which class holds "TACTCACA" ?
result: low end

---

Hi there, I'd appreciate the recorded PBM E-score for every entry that follows.
# Target Entity: Ecm22 (UniProt Q05958)
# Sequence: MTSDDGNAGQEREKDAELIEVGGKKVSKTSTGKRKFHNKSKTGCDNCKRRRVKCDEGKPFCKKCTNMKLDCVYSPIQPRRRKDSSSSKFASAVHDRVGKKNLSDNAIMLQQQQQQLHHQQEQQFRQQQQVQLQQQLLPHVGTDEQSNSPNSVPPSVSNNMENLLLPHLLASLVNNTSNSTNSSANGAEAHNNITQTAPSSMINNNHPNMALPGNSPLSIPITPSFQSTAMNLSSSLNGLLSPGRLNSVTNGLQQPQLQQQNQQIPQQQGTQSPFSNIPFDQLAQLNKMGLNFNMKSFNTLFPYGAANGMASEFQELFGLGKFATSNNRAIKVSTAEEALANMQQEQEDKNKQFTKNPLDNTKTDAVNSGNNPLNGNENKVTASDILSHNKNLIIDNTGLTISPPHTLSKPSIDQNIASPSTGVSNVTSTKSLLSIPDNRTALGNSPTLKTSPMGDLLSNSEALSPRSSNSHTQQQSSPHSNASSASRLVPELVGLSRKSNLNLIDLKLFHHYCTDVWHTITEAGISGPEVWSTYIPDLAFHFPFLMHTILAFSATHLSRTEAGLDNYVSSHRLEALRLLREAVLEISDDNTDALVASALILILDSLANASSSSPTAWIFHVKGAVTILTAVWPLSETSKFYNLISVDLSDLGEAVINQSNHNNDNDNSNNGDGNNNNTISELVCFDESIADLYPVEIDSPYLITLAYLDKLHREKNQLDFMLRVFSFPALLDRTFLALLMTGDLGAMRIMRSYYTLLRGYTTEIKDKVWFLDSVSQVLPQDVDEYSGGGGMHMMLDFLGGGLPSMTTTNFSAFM
# Experiment Notes: PBM E-score (8-mer binding enrichment) (E-score (-0.5 to 0.5)); higher = stronger / more preferred TF binding
# Details: protein concentration: 200 nM; construct: GST-full length
The full ranking holds about 33,000 sequences; the median of “E-score (-0.5 to 0.5)” is about -0.041, and the highest 2% start at about 0.37. This excerpt belongs to a sample that is enriched for the highest values.

>>> df
   item_sequence  recorded_result
0       ACAACCGC            0.111

Here are 2 sequences. What values of PBM E-score were reported for them?
1. AGGCTCCA
2. CCCATTAG

result:
1. -0.369
2. -0.248

---

# Target Entity: Ecm22 (UniProt Q05958)
# Sequence: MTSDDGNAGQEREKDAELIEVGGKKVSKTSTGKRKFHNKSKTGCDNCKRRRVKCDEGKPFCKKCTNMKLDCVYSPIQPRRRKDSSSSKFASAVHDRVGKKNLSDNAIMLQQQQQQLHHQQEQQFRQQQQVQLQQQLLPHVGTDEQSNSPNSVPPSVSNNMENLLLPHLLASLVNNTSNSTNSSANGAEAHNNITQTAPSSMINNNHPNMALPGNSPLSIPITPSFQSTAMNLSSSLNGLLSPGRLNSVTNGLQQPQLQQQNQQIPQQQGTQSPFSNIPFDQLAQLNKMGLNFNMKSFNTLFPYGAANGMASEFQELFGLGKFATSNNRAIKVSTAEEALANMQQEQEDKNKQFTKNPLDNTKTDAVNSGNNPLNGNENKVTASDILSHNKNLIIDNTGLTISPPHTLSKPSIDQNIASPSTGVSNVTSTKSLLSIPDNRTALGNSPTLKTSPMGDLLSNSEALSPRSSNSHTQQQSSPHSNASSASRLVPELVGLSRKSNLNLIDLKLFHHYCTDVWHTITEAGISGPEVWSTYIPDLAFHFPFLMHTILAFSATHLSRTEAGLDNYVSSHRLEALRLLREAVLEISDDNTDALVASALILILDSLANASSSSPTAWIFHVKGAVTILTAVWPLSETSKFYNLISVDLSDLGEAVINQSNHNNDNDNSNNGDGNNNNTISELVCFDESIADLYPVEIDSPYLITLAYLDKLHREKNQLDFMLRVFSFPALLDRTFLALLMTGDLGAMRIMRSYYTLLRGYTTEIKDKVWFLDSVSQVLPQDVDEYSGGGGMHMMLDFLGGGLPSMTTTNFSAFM
# Experiment Notes: PBM E-score (8-mer binding enrichment) (E-score (-0.5 to 0.5)); higher = stronger / more preferred TF binding
# Details: protein concentration: 200 nM; construct: GST-full length
In all, about 33,000 sequences were measured (“E-score (-0.5 to 0.5)”: median about -0.041, highest 2% from about 0.37 on). The full list was thinned out, with the highest values kept by preference.
Hi there, I'd appreciate the recorded PBM E-score for every entry that follows.
Give bare numbers.

In [3]: df
Out[3]:
   item_sequence  recorded_result
0       GATTCGGA            0.171
1       CTCTCGAA          -0.0852
2       AAACGAAA            0.449

Here are 6 sequences. What values of PBM E-score were reported for them?
1. AATTCGTG
2. CCACGAAG
3. CATTCGTC
4. GTCTCGGA
5. GGTATATA
6. CGTATATC

result:
[-0.036, 0.0223, 0.112, 0.242, 0.168, 0.439]

Here are 7 sequences. What values of PBM E-score were reported for them?
1. AGTTCTGC
2. CATTCGCA
3. CTGCGGGC
4. AAAAACAG
5. GACCGCGC
6. GGTATTTA
7. CATTCGTA

result:
[0.17, 0.0842, -0.163, -0.0439, 0.0551, -0.00022, 0.407]

Here are 4 sequences. What values of PBM E-score were reported for them?
1. GTCTCGTA
2. CAAGGGAG
3. CGTATATA
4. CTTGGACC

result:
[0.461, 0.062, 0.444, -0.134]

Here are 2 sequences. What values of PBM E-score were reported for them?
1. GATTCGTA
2. ATTCTAAA

result:
0.45
0.095

---

# Target Entity: Ecm22 (UniProt Q05958)
# Sequence: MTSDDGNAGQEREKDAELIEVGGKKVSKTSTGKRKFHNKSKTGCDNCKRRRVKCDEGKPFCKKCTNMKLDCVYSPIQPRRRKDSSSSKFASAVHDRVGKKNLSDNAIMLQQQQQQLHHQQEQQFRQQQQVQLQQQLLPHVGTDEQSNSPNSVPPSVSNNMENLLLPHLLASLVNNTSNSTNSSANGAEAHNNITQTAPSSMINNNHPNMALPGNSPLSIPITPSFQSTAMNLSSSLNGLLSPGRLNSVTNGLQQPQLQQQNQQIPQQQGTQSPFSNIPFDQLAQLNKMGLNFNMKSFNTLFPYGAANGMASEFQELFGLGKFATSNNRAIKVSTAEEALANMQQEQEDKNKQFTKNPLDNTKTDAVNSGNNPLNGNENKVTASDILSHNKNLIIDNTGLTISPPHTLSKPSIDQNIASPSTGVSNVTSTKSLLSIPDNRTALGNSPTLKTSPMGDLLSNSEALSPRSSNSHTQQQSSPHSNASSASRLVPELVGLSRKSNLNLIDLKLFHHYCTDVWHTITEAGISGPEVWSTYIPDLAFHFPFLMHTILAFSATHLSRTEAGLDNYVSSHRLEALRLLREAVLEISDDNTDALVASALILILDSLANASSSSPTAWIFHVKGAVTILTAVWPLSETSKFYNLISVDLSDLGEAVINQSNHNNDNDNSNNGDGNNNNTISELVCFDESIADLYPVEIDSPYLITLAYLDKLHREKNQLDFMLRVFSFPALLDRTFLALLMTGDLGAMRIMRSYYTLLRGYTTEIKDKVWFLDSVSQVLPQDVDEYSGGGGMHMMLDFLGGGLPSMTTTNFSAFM
# Experiment Notes: PBM E-score (8-mer binding enrichment) (E-score (-0.5 to 0.5)); higher = stronger / more preferred TF binding
# Details: protein concentration: 200 nM; construct: GST-full length
The full ranking holds about 33,000 sequences; the median of “E-score (-0.5 to 0.5)” is about -0.041, and the highest 2% start at about 0.37. The sample holds the highest values, similar sequences and a random draw of the others, so the mix is not that of the screen.
Class key for PBM E-score values: bin 0 (below -0.1), bin 1 (-0.1 to below 0.2), bin 2 (0.2 or more)

The examples below pair each entry with its known result.
In [3]: df
Out[3]:
   item_sequence  class_name
0       CCGACGTC       bin 1
1       ACGACGTA       bin 2
2       ATGACGTG       bin 0

query: Which class holds "GGTAACAC" ?
result: bin 0

query: Which class holds "GCCCTATA" ?
result: bin 1

query: Which class holds "ACTTTCCA" ?
result: bin 0

query: Which class holds "AGGACGTG" ?
result: bin 0

query: Which class holds "ACGACGTC" ?
result: bin 2

query: Which class holds "ACGACGAC" ?
result: bin 2

query: Which class holds "AAGACGTC" ?
result: bin 1

query: Which class holds "CCGACGAG" ?
result: bin 1
